Biological target: Apelin receptor (Homo sapiens, UniProt P35414)
Sequence (P35414 whole entry): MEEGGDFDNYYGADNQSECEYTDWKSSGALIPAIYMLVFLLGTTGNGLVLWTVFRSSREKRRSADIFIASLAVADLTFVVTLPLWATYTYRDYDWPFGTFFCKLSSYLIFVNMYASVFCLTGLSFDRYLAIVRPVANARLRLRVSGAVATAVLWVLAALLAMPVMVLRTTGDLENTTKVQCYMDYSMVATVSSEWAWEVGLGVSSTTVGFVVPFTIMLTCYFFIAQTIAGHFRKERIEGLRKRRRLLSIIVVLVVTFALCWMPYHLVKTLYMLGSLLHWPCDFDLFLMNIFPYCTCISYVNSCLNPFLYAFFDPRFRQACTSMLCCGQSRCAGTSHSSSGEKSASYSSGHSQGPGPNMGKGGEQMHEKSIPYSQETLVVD
Test: Agonist activity at APJ receptor (unknown origin) expressed in CHO cells co-expressing with Calphaq16 assessed as calcium mobilization
Format: functional, cell-based
Settings: read-out: EC50
Mark rule met only for EC50 values smaller than 0.009 µM; exact matches and larger values are rule not met.

| substance | category label |
| --- | --- |
| Ac-RPRLSHKGPF-NH2 | rule met |
| Ac-RPRLSHKGPV-NH2 | rule not met |
| Ac-RPRAAAKGPL-NH2 | rule not met |
| Ac-RPRLSHKGPM-NH2 | rule met |

Here's an entry: H-QRPRLSHKGP-NH2 . Is its EC50 below 0.009 µM? rule not met

Here's an entry: H-QRPRLS-NH2 . Is its EC50 below 0.009 µM? rule not met

Here's an entry: H-QRPRLSHK-NH2 . Is its EC50 below 0.009 µM? rule not met

Here's an entry: Ac-RARLAAKGPL-NH2 . Is its EC50 below 0.009 µM? rule not met

Here's an entry: Ac-APRLSHKGPL-NH2 . Is its EC50 below 0.009 µM? rule not met
